- Test system: breast cancer (MCF-7)
- Run Description: In vitro anti-proliferative MTT assay, MCF-7
- Condition Context: Homo sapiens, MCF7, 24 h, read-out: IC50 MCF-7
Property Name: pIC50
Keep it numeric: pIC50 is minus log10 of the concentration in mol/L.

| Compound | Result Value |
| --- | --- |
| Cc1ccc(NC(=O)c2ccc(NC(=O)CSc3nc4ccccc4o3)cc2)cc1 [Compound 8a] | 5.02 |
| O=C(CSc1nc2ccccc2o1)Nc1ccc(C(=O)Nc2ccc([N+](=O)[O-])cc2)cc1 [Compound 8d] | 5.46 |

Prompt: Looking for the measured pIC50 of O=C(CSc1nc2ccccc2o1)Nc1ccc(C(=O)NCc2ccccc2)cc1 [Compound 8i] , can you help?
Response: 5.00

Prompt: What does the data say about its pIC50? Entry: Cc1ccc(NC(=O)c2ccc(NC(=O)CSc3nc4cc(Cl)ccc4o3)cc2)cc1 [Compound 8b]
Response: 4.91

Prompt: Suppose we examine the compound Cc1ccc(NC(=O)c2ccc(NC(=O)CSc3nc4cc(C)ccc4o3)cc2)cc1 [Compound 8c] ; what pIC50 value has been reported?
Response: 5.04
